Please find below Ki data on 5-hydroxytryptamine receptor 1A (Homo sapiens, UniProt P08908) compiled from the literature.
- System Tested: 5-hydroxytryptamine receptor 1A (Homo sapiens, UniProt P08908)
- Sequence (P08908 whole entry): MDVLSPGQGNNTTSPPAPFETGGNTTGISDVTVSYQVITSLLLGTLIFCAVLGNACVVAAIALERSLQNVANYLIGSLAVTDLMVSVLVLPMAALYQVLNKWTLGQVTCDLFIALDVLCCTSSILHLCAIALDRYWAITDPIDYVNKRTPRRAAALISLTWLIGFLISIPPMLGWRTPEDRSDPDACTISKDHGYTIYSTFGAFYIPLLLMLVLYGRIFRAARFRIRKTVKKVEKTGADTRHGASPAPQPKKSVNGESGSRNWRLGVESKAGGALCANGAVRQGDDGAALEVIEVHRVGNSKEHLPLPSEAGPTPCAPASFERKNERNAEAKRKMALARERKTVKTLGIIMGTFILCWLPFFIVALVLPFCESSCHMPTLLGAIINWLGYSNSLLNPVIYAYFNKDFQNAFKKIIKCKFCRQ
Recorded Metric: Ki (µM)

> print(dat)
                                   molecule  recorded.metric  recorded.value
1  O=S(=O)(c1cncc2ccccc12)N1CCC(CCN2CCN(c3ccc(F)cc3)CC2)CC1               Ki           0.975
2  OC(CNCCC(Oc1ccc(C(F)(F)F)cc1)c1ccccc1)COc1ccccc1C1CCCC1 (stereo not given)               Ki          0.0364
3        CN1CCN(c2nc(N)nc(COc3ccccc3)n2)CC1               Ki            8.73
4  CN1CCC(c2c[nH]c3ccc(NC(=O)C4CCCC4)nc23)CC1               Ki               2
5  O=C(Nc1ccc2cnn(S(=O)(=O)c3cccc4ccccc34)c2c1)C1CCCNC1 (racemic)               Ki             5.6
